- ASSAYED_TARGET: T1, human IL-23 (Sino Biological, CT048-H08H) (human, UniProt Q9NPF7 20-189; P29460 23-328)
- T1 sequence (looked up) 1: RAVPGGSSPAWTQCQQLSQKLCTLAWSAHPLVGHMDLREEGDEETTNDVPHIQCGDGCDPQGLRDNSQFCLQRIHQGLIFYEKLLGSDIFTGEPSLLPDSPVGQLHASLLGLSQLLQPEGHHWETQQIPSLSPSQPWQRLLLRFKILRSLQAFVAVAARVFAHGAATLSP
- T1 sequence (looked up) 2: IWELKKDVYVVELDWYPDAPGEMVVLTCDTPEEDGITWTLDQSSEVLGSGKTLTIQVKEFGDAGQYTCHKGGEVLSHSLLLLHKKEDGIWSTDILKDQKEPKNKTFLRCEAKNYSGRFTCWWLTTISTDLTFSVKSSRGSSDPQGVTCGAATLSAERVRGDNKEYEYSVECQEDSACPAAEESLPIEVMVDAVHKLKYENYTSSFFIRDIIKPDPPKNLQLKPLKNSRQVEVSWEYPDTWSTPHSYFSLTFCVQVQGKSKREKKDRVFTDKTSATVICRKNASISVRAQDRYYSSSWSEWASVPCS
- METHOD_DESCRIPTION: cell-based or functional assay
Documented Activity in inhibiting proliferation of BaF3-IL-23R cells (IC50, nM) across a set of binders
Report as: number unit

Worked cases, answers included:
[
  {
    "BINDER": "Hu38-14 (antibody, human IgG1, kappa, L234A L235A, V domains shown, humanized mAb38, IgG1/kappa) VH: EFQLVQSGAEVKKPGASVKVSCKASGYSFTDHNMNWVRQAPGQSLEWMGVINPNYGTTTYNQKFKGRVTITVDQSASTAYMELSSLRSEDTAVYYCARRGFAYWGQGTLVTVSS VL: DIVMTQTPLSLPVTPGEPASISCRSSKSLLYKDGKTYLNWFLQKPGQSPQLLIYLMSTRASGVPDRFSGSGSGTDLTLKISRVEAEDVGVYYCQQIAEYPFTFGSGTKLEIKR",
    "RECORDED_MEASUREMENT": "0.152 nM"
  },
  {
    "BINDER": "Hu38-12 (antibody, human IgG1, kappa, L234A L235A, V domains shown, humanized mAb38, IgG1/kappa) VH: EFQLVQSGAEVKKPGASVKVSCKASGYSFTDHNMNWVRQAPGQRLEWMGVINPNYGTTTYNQKFKGRVTITVDQSASTAYMELSSLRSEDTAVYYCARRGFAYWGQGTLVTVSS VL: DIVMTQTPLSLPVTPGEPASISCRSSKSLLYKDGKTYLNWFLQKPGQSPQLLIYLMQTRASGVPDRFSGSGSGTDLTLKISRVEAEDVGVYYCQQIAEYPFTFGSGTKLEIKR",
    "RECORDED_MEASUREMENT": "0.184 nM"
  },
  {
    "BINDER": "Hu38-7 (antibody, human IgG1, kappa, L234A L235A, V domains shown, humanized mAb38, IgG1/kappa) VH: EVQLVQSGAEVKKPGASVKVSCKASGYSFTDHNMNWVRQAPGQRLEWMGVINPNYGTTTYNQKFKGRVTITVDTSASTAYMELSSLRSEDTAVYYCARRGFAYWGQGTLVTVSS VL: DIVITQTPLSLPVTPGEPASISCRSSKSLLYKDGKTYLNWFLQRPGQSPQLLIYLMSTRASGVPDRFSGSGSGTDLTLKISRVEAEDVGVYYCQQIAEYPFTFGSGTKLEIKR",
    "RECORDED_MEASUREMENT": "0.179 nM"
  }
]

Field: next binder
-- ask For the binder Hu38-6 (antibody, human IgG1, kappa, L234A L235A, V domains shown, humanized mAb38, IgG1/kappa) VH: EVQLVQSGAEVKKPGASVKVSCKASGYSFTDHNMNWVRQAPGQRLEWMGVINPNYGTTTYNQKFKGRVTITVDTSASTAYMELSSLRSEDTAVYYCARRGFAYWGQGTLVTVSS VL: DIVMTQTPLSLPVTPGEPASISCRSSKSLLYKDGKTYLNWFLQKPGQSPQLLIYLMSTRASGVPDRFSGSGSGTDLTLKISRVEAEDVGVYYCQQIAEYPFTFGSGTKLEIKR , give its measured Activity in inhibiting proliferation of BaF3-IL-23R cells (IC50, nM) value.
-- reply 0.136 nM
